# TARGET DESC: CNKSR3, Q6P9H4
# Sequence (Q6P9H4 203-303): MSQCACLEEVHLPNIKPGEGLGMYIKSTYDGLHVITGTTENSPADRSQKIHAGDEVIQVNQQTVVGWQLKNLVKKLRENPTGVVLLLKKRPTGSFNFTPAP
# EXPERIMENT: holdup assay
# Set-up: key: below the threshold = too weak to quantify, mostly under pKd 3.1 to 4
# CONDITION CONTEXT: plain residues with an end cap or a label only (N-terminal biotin on a linker: ttds)
MEASURE NAME: pKd

{"BINDER": "STLTIFETAL [ABCC4, O15439]", "MEASURE NAME": "pKd", "RESULT": "below the threshold"}
{"BINDER": "RSLEEEESQL [GRASP, Q7Z6J2]", "MEASURE NAME": "pKd", "RESULT": 4.6}
{"BINDER": "QSARYRDTEL [TJP2, Q9UDY2]", "MEASURE NAME": "pKd", "RESULT": "below the threshold"}
{"BINDER": "SVWLRKETRV [CYSLTR2, Q9NS75]", "MEASURE NAME": "pKd", "RESULT": "below the threshold"}
{"BINDER": "PKTPPTDTSV [KIR3DL3, Q8N743]", "MEASURE NAME": "pKd", "RESULT": "below the threshold"}

SRPQRTQTQV [HPV67-E6, A4U7F2] yielded pKd of below the threshold

SSRTRRETQL [HPV16-E6, P03126] yielded pKd of below the threshold

src = paper PMC9482650
